This collection of values is drawn from ChEMBL document CHEMBL5528077.

Experiment: in vivo
Conditions: BALB/c, mouse, po, 10 mg/kg
METRIC: bioavailability (%)
Form entry: value (%) — number only.

input: # return recorded bioavailability for entry CC(C)CN1C[C@H](Cc2ccc(Cl)cc2)N(C2CCN(c3ccccn3)CC2)C[C@@H]1C
output: 5.6

* * *

Measured Vd, listed per entry for reference.
Experiment: in vivo
Details: BALB/c, mouse, iv, 3 mg/kg
Form entry: value (L/kg) — number only.

QUERY SMILES | OBSERVED MEASUREMENT
Cc1ccnc(N2CCC(N3C[C@H](C)OC[C@@H]3Cc3ccc(Cl)cc3)CC2)c1 | 2.5

--- query ---
input: # return recorded Vd for entry CC(C)CN1C[C@H](Cc2ccc(Cl)cc2)N(C2CCN(c3ccccn3)CC2)C[C@@H]1C
output: 9.25
